System: Vero E6
Assay: cell viability relative to DMSO; higher = less toxic
Conditions: 72 h; 1000 nM
Condition met if cell viability is below 90%. Condition not met if not; exact matches included in Condition not met.

Is cell viability strictly under 90% for the entry CCCCC/C=C\C/C=C\CCCCCCCC(=O)NCCCC(=O)O [GABA-linoleamide] ?
Condition not met

Hello, I'm reviewing records and need to know if cell viability of COc1ccc(/C=C\c2cc(OC)c(OC)c(OC)c2)cc1OP(=O)(O)O is below 90%. Could you check?
Condition met

Lab log: compare recorded cell viability with 90%; is it strictly lower for C#Cc1cccc(Nc2ncnc3cc(OCCOC)c(OCCO)cc23)c1 ?
Condition met

Take the molecule C=CCNC1=C2C[C@@H](C)C[C@H](OC)[C@H](O)[C@@H](C)/C=C(\C)[C@H](OC(N)=O)[C@@H](OC)/C=C\C=C(/C)C(=O)NC(=CC1=O)C2=O and say whether its cell viability is less than 90%.
Condition met

Regarding Cc1nn(C)c2c1C(c1cccc(Cl)c1)=NCCN2 , kindly confirm whether its cell viability is beneath 90%.
Condition not met

Would you kindly verify if cell viability of C[C@H]1C[C@H]2[C@@H]3CCC4=CC(=O)C=C[C@]4(C)[C@H]3C(=O)C[C@]2(C)[C@@]1(O)C(=O)CO is strictly less than 90%?
Condition not met

Strictly below 90% in cell viability? CN1CCC2=C(C1)C(c1ccccc1)c1ccccc12 (stereo not drawn)
Condition not met

---

Test system: Vero E6
Experiment: cell viability relative to DMSO; higher = less toxic
Details: 72 h; 1000 nM
Assign cell viability to each entry below.
// units = %; emit number, no label

Short answer please: cell viability, Vero E6, entry [Cl][Ru-]([Cl])([Cl])[Cl].[Na+].c1ccc2[nH]ncc2c1.c1ccc2[nH]ncc2c1
104

Recall the recorded cell viability for CCC(CC)Nc1cc(C)nc(Oc2c(C)cc(C)cc2C)c1C with Vero E6 and state it.
94.3

Find the measured cell viability: item Cc1cc(OCc2nnc(SC3CCCC3)n2-c2cccnc2)ccc1-c1ccc(S(C)(=O)=O)cc1 , target or system Vero E6.
88

Tell me reported cell viability for C[n+]1c2cc(N)ccc2cc2ccc(N)cc21 , tested with Vero E6.
82

Tell me reported cell viability for c1ccc(CNc2ncnc3[nH]cnc23)cc1 , tested with Vero E6.
95

Form field - read-out: cell viability; system: Vero E6; submitted item: N#C/C(=C\c1ccc(O)c(O)c1)C(=O)Nc1ccccc1
105

Could you share what cell viability was measured for N#Cc1ccc(N2N=C3c4ccc(C(=O)O)cc4CC[C@@H]3[C@@H]2C2CCCC2)cc1Cl , tested on Vero E6?
98.5

Recall the recorded cell viability for CC1(COc2ccc(CC3SC(=O)NC3=O)cc2)CCCCC1 (stereo unspecified) with Vero E6 and state it.
94.1

For the record CCOC(=O)c1ccccc1OC(=O)CCCCCCCC(=O)Oc1ccccc1C(=O)OCC , what value of cell viability is listed for Vero E6?
101

Which measured cell viability belongs to O=C1OC2(c3ccccc31)c1cc(I)c(O)c(I)c1Oc1c2cc(I)c(O)c1I , tested on Vero E6?
81.6

# get_value(readout= cell viability, system= Vero E6) for C[C@]12CC[C@H](O)CC1=CC[C@@H]1[C@@H]2CC[C@]2(C)C(c3cccnc3)=CC[C@@H]12
96.4

Short answer please: cell viability, Vero E6, entry Cc1nc(C#Cc2ccnc(Cl)c2)c(C)n1-c1ccc(OC(F)(F)F)cc1
102

Form entry - test system: Vero E6; read-out: cell viability; molecule: CC1(CN2CCC(n3c(=O)[nH]c4ccccc43)CC2)OCc2ccccc2-n2cccc21 (stereo unspecified) [zaldaride]
100

API: value(readout= cell viability, system= Vero E6, query= Cc1sc(N)c(C(=O)c2cccc(C(F)(F)F)c2)c1C )
99.3

What measured cell viability is associated with CCCCCCCCCCCCCCCCCCCCCCCCCCCCO on Vero E6?
95.6

Observed cell viability on Vero E6 for CN1CCN2c3c(cccc31)[C@@H]1CN(CCCC(=O)c3ccc(F)cc3)CC[C@@H]12 , please.
99.6

// data source = the supplement of paper PMC13380429
